assayTarget: T1, Hexa-His-tagged FkpB (wild type) (E. coli, UniProt P0AEM0 1-149)
T1 chain: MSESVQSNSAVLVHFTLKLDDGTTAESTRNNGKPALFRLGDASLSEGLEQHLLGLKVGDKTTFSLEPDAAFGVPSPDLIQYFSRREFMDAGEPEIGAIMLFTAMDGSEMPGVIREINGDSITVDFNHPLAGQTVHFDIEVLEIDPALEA
assayText: ITC
quantityKind: pKd
A value of pKd is the negative decimal logarithm of a concentration given in moles per litre.

Reported pKd ( RATFVVDPQGI (peptide from AhpC (alkyl hydroperoxide reductase subunit C), E. coli; also called AhpC peptide) [AhpC-derived peptide] ) = 4.52
